molecular target: human CD33 T42P (human, UniProt P20138 18-364); assay: flow cytometry, mutant on cells, IgG
Sequence (P20138 18-364 T42P limits assumed): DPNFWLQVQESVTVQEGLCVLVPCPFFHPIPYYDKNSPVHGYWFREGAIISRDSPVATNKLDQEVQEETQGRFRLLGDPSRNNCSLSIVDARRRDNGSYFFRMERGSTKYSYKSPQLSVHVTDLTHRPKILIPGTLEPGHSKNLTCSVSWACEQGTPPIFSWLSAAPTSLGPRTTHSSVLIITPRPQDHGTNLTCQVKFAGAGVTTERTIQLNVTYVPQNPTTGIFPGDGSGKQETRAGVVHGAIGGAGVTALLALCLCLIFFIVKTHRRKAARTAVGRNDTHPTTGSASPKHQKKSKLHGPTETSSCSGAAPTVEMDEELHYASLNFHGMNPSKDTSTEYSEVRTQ
Known Mean % WT Binding of a selection of binders
Respond with the bare value in % WT binding.

// query // returns reported Mean % WT Binding for input Refmab #1 (antibody, human IgG1, V domains shown, Tested in IgG format; human IgG1 (Absolute Antibody hP67.6, Cat. No. Ab00283-10.0); also called hP67.6) VH: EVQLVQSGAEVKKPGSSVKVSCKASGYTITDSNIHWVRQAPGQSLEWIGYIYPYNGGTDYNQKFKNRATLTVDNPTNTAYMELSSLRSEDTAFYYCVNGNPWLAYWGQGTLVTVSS VL: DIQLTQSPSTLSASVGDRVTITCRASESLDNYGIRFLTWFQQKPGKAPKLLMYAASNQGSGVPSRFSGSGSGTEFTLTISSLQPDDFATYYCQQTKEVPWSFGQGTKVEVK
// result 14.6

// query // returns reported Mean % WT Binding for input Refmab #2 (antibody, human IgG1, V domains shown, Tested in IgG format; human IgG1 Fc silent (PG-LALA)) VH: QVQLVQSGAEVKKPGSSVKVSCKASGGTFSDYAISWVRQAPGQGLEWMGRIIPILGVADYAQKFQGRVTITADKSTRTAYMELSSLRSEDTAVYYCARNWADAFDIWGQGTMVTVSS VL: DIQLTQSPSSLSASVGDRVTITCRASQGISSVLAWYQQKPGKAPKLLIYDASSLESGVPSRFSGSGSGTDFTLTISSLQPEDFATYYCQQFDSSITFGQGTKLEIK
// result 12.7

// query // returns reported Mean % WT Binding for input Refmab #4 (antibody, human IgG1, V domains shown, Tested in IgG format; human IgG1 Fc silent (PG-LALA)) VH: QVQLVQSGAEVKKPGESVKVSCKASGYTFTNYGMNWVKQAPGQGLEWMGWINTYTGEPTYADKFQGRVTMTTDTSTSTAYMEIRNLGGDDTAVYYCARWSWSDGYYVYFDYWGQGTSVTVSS VL: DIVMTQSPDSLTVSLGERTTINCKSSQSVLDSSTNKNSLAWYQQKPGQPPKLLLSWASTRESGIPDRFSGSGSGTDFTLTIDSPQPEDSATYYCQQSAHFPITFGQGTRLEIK
// result 21.6

// query // returns reported Mean % WT Binding for input Refmab #3 (antibody, human IgG1, V domains shown, Tested in IgG format; human IgG1 Fc silent (PG-LALA)) VH: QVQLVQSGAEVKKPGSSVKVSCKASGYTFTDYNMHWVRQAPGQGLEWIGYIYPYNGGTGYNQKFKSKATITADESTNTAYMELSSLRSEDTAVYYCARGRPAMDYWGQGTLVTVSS VL: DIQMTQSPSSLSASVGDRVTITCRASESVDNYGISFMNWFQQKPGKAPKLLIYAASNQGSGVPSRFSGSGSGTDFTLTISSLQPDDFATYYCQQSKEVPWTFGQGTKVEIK
// result 18.6
